Each item that follows carries a reported koff.
Biological target: T1, mfNPR1-mFc (monkey)
T1 construct: also called dimeric monkey NPR1
T1 chain: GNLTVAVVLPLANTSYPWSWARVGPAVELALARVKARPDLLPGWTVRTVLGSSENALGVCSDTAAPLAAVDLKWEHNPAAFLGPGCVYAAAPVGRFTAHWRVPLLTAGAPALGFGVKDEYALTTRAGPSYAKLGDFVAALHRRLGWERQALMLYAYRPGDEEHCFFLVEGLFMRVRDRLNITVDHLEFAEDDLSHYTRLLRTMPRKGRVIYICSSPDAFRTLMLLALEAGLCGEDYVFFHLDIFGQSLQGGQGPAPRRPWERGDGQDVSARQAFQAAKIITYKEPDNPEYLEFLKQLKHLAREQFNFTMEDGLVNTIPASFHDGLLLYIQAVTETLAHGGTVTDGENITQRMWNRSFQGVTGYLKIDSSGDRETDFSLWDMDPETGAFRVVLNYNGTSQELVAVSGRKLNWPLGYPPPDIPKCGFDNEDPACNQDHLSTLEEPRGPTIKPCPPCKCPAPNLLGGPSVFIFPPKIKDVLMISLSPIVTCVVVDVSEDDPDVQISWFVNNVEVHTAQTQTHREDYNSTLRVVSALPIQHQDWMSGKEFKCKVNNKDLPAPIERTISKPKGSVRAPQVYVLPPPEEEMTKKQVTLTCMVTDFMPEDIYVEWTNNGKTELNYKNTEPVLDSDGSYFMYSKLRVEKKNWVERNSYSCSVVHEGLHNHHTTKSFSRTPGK
Experiment: SPR, mAb captured, 25C
Give just the number in s⁻¹; leave the unit off.

Data request: Item under review: mAb25508 (antibody, human IgG4, V domains shown) VH: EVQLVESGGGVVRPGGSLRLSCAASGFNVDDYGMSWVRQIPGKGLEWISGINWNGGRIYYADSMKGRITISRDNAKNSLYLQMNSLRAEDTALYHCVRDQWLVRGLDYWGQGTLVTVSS VL: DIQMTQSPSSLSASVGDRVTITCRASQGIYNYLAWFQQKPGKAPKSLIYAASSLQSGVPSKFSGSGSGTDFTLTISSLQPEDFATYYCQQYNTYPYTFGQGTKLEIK . Reported koff?
Data returned: 5.98e-05

More entries:
Data request: Item under review: mAb25491 (antibody, human IgG4, V domains shown) VH: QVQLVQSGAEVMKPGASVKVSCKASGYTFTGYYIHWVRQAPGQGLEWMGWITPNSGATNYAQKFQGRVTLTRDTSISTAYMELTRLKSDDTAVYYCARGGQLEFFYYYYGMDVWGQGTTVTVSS VL: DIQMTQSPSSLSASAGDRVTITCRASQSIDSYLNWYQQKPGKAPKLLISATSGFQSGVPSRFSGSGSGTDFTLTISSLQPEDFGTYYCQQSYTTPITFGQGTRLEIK . Reported koff?
Data returned: 7.54e-05

Data request: Item under review: mAb22035 (antibody, human IgG4, V domains shown) VH: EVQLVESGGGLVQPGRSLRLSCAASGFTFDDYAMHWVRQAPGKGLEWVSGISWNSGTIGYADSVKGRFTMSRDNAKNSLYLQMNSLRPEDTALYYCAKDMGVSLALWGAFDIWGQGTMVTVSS VL: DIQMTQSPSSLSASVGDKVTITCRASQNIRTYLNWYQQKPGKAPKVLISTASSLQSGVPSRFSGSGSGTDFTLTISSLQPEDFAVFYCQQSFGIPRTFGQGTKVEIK . Reported koff?
Data returned: 5.57e-05
